Where these numbers come from: PubChem BioAssay (NCI)

Below: a set of entries, each annotated with reported growth.
- System: ACHN renal
- methodDescription: NCI-60 one-dose screen, 48 h (100 = growth as untreated, 0 = no growth, -100 = all killed)
- experimentalParameters: 10 µM unless noted
About 83,000 compounds went through this panel and 20% of them were active in at least one assay; those are over-represented in the sample as a whole. Activity calls are given as the source filed them. The calls were made as follows: active = growth percent below 10; inactive = the rest.

# example entries with known answers
INSERT INTO assay_data (compound, result) VALUES
  ('C=C(C)c1ccc(/C=N/NC(N)=S)cc1', '93.2% (inactive)'),
  ('O=C(Oc1c(Cl)c(Cl)c(Cl)c(Cl)c1Cl)C1CCCN1C(=O)OCc1ccccc1 (stereo unspecified)', '17% (inactive)'),
  ('O=C1C=CC(=O)N1CO', '108% (inactive)'),
  ('CC(=O)c1ccc(Nc2nc(Cl)nc(Oc3c(Cl)cccc3Cl)n2)cc1', '98.3% (inactive)'),
  ('Cc1ccc2oc(=O)cc(-c3nc4ccc([N+](=O)[O-])cc4[nH]3)c2c1', '63% (inactive)');

INPUT: Data request, read-out growth, for "CCOC(=O)Nc1ccc2nc(-c3cscn3)[nH]c2c1"
OUTPUT: 73.9% (inactive)

INPUT: Data request, read-out growth, for "CCCCCNCCCCCNc1cc(OC)cc2cccnc12"
OUTPUT: 94.3% (inactive)

INPUT: Data request, read-out growth, for "Cc1ccc(N2C3c4ccccc4N(S(=O)(=O)c4ccc(C)cc4)C2c2ccccc2N3S(=O)(=O)c2ccc(C)cc2)cc1"
OUTPUT: 95.2% (inactive)

INPUT: Data request, read-out growth, for "O=C(/C=C/c1ccccc1)n1c(-c2ccccc2)nc2ccccc21"
OUTPUT: 104% (inactive)

INPUT: Data request, read-out growth, for "COc1ccc(-c2n[nH]nc2-c2cc(OC)c3c(c2)OCO3)cc1"
OUTPUT: 29.6% (inactive)

INPUT: Data request, read-out growth, for "Clc1cc(Br)ccc1-c1ccc(CNCC2CCNCC2)o1"
OUTPUT: 3.97% (active)
